The measured values listed here are drawn from patent US20070189962A1.

TARGET: T1, CD22 (human, UniProt P20273 20-847)
T1 construct: whole, on cells; also called native CD22(αβ) on Daudi cells; CD22 antigen
T1 sequence (looked up): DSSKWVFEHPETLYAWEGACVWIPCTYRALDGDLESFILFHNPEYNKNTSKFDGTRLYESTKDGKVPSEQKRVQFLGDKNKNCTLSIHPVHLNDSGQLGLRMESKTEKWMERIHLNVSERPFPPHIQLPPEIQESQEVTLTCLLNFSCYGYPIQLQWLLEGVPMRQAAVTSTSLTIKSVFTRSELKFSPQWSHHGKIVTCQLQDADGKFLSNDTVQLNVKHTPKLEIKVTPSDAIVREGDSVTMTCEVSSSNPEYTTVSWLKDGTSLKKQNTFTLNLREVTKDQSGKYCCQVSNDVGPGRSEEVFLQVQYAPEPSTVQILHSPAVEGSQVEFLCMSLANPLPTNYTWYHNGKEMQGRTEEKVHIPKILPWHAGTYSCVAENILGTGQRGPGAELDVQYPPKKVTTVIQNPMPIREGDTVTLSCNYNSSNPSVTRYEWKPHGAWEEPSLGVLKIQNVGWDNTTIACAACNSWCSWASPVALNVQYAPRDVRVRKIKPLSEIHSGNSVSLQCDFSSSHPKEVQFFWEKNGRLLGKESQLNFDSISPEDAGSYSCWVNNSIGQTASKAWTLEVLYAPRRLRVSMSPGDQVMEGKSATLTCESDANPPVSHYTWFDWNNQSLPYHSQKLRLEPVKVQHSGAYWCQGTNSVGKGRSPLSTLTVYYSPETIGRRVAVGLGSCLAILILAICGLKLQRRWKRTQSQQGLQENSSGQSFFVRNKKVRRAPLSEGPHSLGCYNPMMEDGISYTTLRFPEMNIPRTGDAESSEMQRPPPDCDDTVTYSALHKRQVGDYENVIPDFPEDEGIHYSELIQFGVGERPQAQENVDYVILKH
EXPERIMENTAL_PROTOCOL: monoclonal phage FACS on Daudi cells
OBSERVED_PROPERTY: binding result

* E6 (scFv displayed on phage) (scFv, V domains shown, also called L-CDR1 GR mutant of HA22) VH: EVQLVESGGGLVKPGGSLKLSCAASGFAFSIYDMSWVRQTPEKRLEWVAYISSGGGTTYYPDTVKGRFTISRDNAKNTLYLQMSSLKSEDTAMYYCARHSGYGTHWGVLFAYWGQGTLVTVSA VL: DIQMTQTTSSLSASLGDRVTISCRASQDIGRYLNWYQQKPDGTVKLLIYYTSILHSGVPSRFSGSGSGTDYSLTISNLEQEDFATYFCQQGNTLPWTFGGGTKLEIK | binds
